Data provenance is ChEMBL document CHEMBL4513216.

- System: Plasmodium berghei
- method: Screen against P. berghei liver stage (PbLuc), transformed with Luciferase, at 2uM
- Type: functional, HepG2
- condition label: tested at 2 uM
The campaign covered roughly 68,000 compounds. About 2,700 (4%) showed an effect of 50% or more. The full list was thinned out, with strong results kept by preference.
I'd be grateful if you could share measured INHIBITION for these entries.
Numbers only, in %.

[[record]]
molecule = "CC(=O)N1CCO[C@@H]2CN(S(=O)(=O)c3ccc(C)cc3)CC[C@@H]2C1"
endpoint_name = "INHIBITION"
units_label = "%"
result_number = -24.35

[[record]]
molecule = "Cc1nc(CO[C@@H]2CN(Cc3cccnc3)[C@@H]3COC[C@@H]32)cs1"
endpoint_name = "INHIBITION"
units_label = "%"
result_number = 55.66

[[record]]
molecule = "Nc1ncccc1CN1C[C@@H](C(=O)O)[C@H](c2cccc(F)c2)C1"
endpoint_name = "INHIBITION"
units_label = "%"
result_number = 1.22


Below are 7 molecules. Give each one its INHIBITION.
1. Cc1cnccc1N1CCCN(C(=O)CCc2n[nH]c(C)c2C)CC1
2. CC1CN(C)c2ccccc2CN1C(=O)NCc1ccon1 (configuration not stated)
3. CNC(=O)C(C)(C)NC(=O)c1cc(COc2cccc(C(C)=O)c2)[nH]n1
4. COc1cc(N2CCC3(CCCN(C(=O)c4cccnc4)C3)C2)ncn1 (configuration not stated)
5. CN(Cc1ccc(N(C)C)cc1)C(=O)CS(=O)(=O)c1ccc(Cl)cc1
6. CC1(C)CN(CC(F)(F)F)CCN1CC(=O)NC1CCCC1
7. CCCC(=O)N1C[C@@H]2CCN(c3cnccn3)C[C@@H]2C1

Result:
-40.52
16.79
-8.74
-15.29
9.02
37.42
50.72

Below are 2 molecules. Give each one its INHIBITION.
1. COc1c(C2CCCN2C(=O)CCNc2ncccn2)c(C)nn1C (configuration not stated)
2. Cc1nc(CO[C@@H]2CN(Cc3ccsc3)[C@@H]3COC[C@@H]32)cs1

Result:
1. 6.89
2. 24.43
